- ASSAY SUMMARY: Cytotoxicity against human GES-1 cells after 48 hrs by MTT assay
- Type: cell-based
- CONDITION SET: GES1, 48 h
pIC50: −log10 of the molar value.
RECORDED ENDPOINT: pIC50

Asked: Looking for the measured pIC50 of COc1cc2c(cc1OC)CN(CCn1cc(COc3ccccc3NC(=O)c3ccc(C(C)(C)C)cc3)nn1)CC2 , can you help?
Given back: < 4.10

----------
- ASSAY SUMMARY: Reversal of P-gp-mediated multidrug resistance in human K562/A02 cells assessed as reduction of adriamycin IC50 at 5 uM incubated for 24 hrs followed by adriamycin treatment 12 hrs post compound washout measured after 48 hrs by MTT assay
- Format: cell-based
RECORDED ENDPOINT: pIC50
Lab note — pIC50 values are minus log10 of concentrations in M.

Asked: Entry under review: COc1cc2c(cc1OC)CN(CCn1cc(COc3ccccc3NC(=O)c3ccc(C(C)(C)C)cc3)nn1)CC2 . Reported pIC50?
Given back: 4.26

Sourced from ChEMBL document CHEMBL3352496
